biological target: SARS-CoV-2 spike RBD (SARS-CoV-2, UniProt P0DTC2 319-591); assay: flow cytometry
Reported Endpoint: binding result

> print(dat)
                                     binder  reported.endpoint  reported.value
1  RBD4 (ssDNA) DNA: GGGAGAGGAGGGAGATAGATATCAATGGGTGGGAGGGAGGGGGGCTTTATTCCGGTGTTTTTTCGTTTCGTGGATGCCACAGGAC     binding result           binds
2  RBD2 (ssDNA) DNA: GGGAGAGGAGGGAGATAGATATCAATACAGTTGGTTGTAGGTTTTTGTTAGGTTAGTTTAGGGTTTTTCGTGGATGCCACAGGAC     binding result           binds
3  RBD3 (ssDNA) DNA: GGGAGAGGAGGGAGATAGATATCAATGGGTGTTTTGGTTGTAGGGTTTAGGTTTAGGGTACTCTTTTTCGTGGATGCCACAGGAC     binding result           binds
4  SP5 (ssDNA) DNA: GGGAGAGGAGGGAGATAGATATCAACCATGGTAGGTATTGCTTGGTAGGGATAGTGGGCTTGATGTTTCGTGGATGCCACAGGAC     binding result      no binding
5  SP7 (ssDNA) DNA: GGGAGAGGAGGGAGATAGATATCAAAGGAGGGTAGGTAGTGCTTGGTAGGGAAACTCCGCCGATTTTTCGTGGATGCCACAGGAC     binding result      no binding
6  SP6 (ssDNA) DNA: GGGAGAGGAGGGAGATAGATATCAACCCATGGTAGGTATTGCTTGGTAGGGATAGTGGGCTTGATGTTTCGTGGATGCCACAGGAC     binding result      no binding
7  RBD1 (ssDNA) DNA: GGGAGAGGAGGGAGATAGATATCAAGTTAGGTTCTGGATTAGGTTAGGGTTGTGTTGTTGTTAGGTTTCGTGGATGCCACAGGAC     binding result           binds
